List of Liver values.
Test system: PC-3 PIP/flu tumor-bearing mice
Assay: Biodistribution studies in PC-3 PIP/flu tumor-bearing mice
Conditions: 4 h p.i.
Write it as a number; the unit % IA/g goes unstated.

O=C(O)CCC(NC(=O)NC(CCCCNC(=O)C(Cc1ccc2ccccc2c1)NC(=O)C1CCC(CNC(=O)C(CCCCNC(=O)CN2CCN(CC(=O)O)CCN(CC(=O)O)CCN(CC(=O)O)CC2)NC(=O)CC(NC(=O)CC(NC(=O)CCCc2ccc(I)cc2)C(=O)O)C(=O)O)CC1)C(=O)O)C(=O)O (stereo not drawn) [^177Lu-PSMA-ALB-05, metal not drawn] ... 2.96

Lookup: Record O=C(O)CCC(NC(=O)NC(CCCCNC(=O)C(Cc1ccc2ccccc2c1)NC(=O)C1CCC(n2cc(CC(NC(=O)CN3CCN(CC(=O)O)CCN(CC(=O)O)CCN(CC(=O)O)CC3)C(=O)NC(CCCCNC(=O)CCCc3ccc(I)cc3)C(=O)O)nn2)CC1)C(=O)O)C(=O)O (stereo not drawn) [^177Lu-PSMA-ALB-01, metal not drawn] : what is its Liver with PC-3 PIP/flu tumor-bearing mice?
Found: 5.92

Lookup: Record O=C(O)CCC(NC(=O)NC(CCCCNC(=O)C(Cc1ccc2ccccc2c1)NC(=O)C1CCC(CNC(=O)C(CCCCNC(=O)CCCc2ccc(I)cc2)NC(=O)CN2CCN(CC(=O)O)CCN(CC(=O)O)CCN(CC(=O)O)CC2)CC1)C(=O)O)C(=O)O (stereo not drawn) [^177Lu-PSMA-ALB-03, metal not drawn] : what is its Liver with PC-3 PIP/flu tumor-bearing mice?
Found: 4.56
